target: USP7 (Homo sapiens, UniProt Q93009, C315A); construct: 0.25 nM His-His-USP7 (aa208-560, [C315A]) was incubated with compound; His-His (N); experiment: Inhibition of USP7 by Fluorescence Intensity (FLINT) readings, Ubiquitin-Rhodamine-110 substrate; assay type: biochemical; conditions: 0.25 nM His-His-USP7 (aa208-560, [C315A]); compound 60 minutes at 30° C.; 500 nM Ubiquitin-Rhodamine substrate; 11-point curves
Sequence (Q93009 208-560 C315A): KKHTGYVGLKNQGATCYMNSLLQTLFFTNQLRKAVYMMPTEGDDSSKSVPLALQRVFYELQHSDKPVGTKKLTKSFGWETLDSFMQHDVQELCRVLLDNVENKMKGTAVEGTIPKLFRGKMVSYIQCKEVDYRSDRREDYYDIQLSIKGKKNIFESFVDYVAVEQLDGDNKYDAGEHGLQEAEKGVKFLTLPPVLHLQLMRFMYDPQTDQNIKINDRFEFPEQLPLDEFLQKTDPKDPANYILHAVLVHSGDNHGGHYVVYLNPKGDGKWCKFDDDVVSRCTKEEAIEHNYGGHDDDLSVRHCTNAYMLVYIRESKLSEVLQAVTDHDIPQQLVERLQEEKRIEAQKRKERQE
measure_name: IC50 (nM)

INSERT INTO measurements (molecule, measure_name, measurement) VALUES
  ('O=C([C@@H]1CCC(F)(F)C[C@H]1c1cscn1)N1CCC(O)(Cn2cnc3c(-c4ccccc4)scc3c2=O)CC1 (single isomer, unassigned) [Example 82]', 'IC50', 10100),
  ('Cn1ccnc1[C@@H]1CCCC[C@H]1C(=O)N1CCC(O)(Cn2cnc3c(ccn3-c3ccccc3)c2=O)CC1 (single isomer, unassigned) [Example 57]', 'IC50', 28400),
  ('CN1C(=O)CC[C@@H](C(=O)N2CCC(O)(Cn3cnc4c(ccn4-c4ccccc4)c3=O)CC2)[C@@H]1c1ccccc1 (single isomer, unassigned) [Example 27]', 'IC50', 31.5);

a = COc1ccc(-n2ccc3c(=O)n(CC4(O)CCN(C(=O)C5CCC(=O)N(C)C5c5ccccc5)CC4)cnc32)cc1 (single isomer, unassigned) [Example 117]
b = CC1(C)CC[C@@H](C(=O)N2CCC(O)(Cn3cnc4c(-c5ccccc5)scc4c3=O)CC2)[C@H](c2ccccc2)C1 (single isomer, unassigned) [Example 99]
Between these two entries, a and b , state which has the higher IC50. Record your answer as the label of the chosen record.
b
(b: 268 nM, a: 30.9 nM)

###

biological target: USP7 (Homo sapiens, UniProt Q93009, C315A); construct: 0.25 nM His-His-USP7 (aa208-560, [C315A]) was incubated with compound; His-His (N); test: Inhibition of USP7 by Fluorescence Intensity (FLINT) readings, Ubiquitin-Rhodamine-110 substrate; assay type: biochemical; conditions: 0.25 nM His-His-USP7 (aa208-560, [C315A]); compound 60 minutes at 30° C.; 500 nM Ubiquitin-Rhodamine substrate; 11-point curves
measure_name: IC50 (nM)

a = COc1ccc(-n2ccc3c(=O)n(CC4(O)CCN(C(=O)[C@@H]5CCC(F)(F)C[C@H]5c5ccccc5)CC4)cnc32)cc1 (single isomer, unassigned) [Example 34]
b = O=C([C@@H]1CCCC[C@H]1c1ccccc1)N1CCC(O)(Cn2cnc3c(ccn3-c3ccccc3)c2=O)CC1 (relative stereo)
Field: lower IC50 | Options: a / b Record your answer as the label of the chosen record.
a

I = O=C([C@@H]1CCC(F)(F)C[C@H]1c1ccncc1)N1CCC(O)(Cn2cnc3c(-c4ccccc4)scc3c2=O)CC1 (relative stereo)
II = COc1ccc(-n2ccc3c(=O)n(CC4(O)CCN(C(=O)[C@@H]5CCC(F)(F)C[C@H]5c5cccs5)CC4)cnc32)cc1 (single isomer, unassigned)
Between these two entries, I and II , state which has the higher IC50. Record your answer as the label of the chosen record.
I

###

target: USP7 (Homo sapiens, UniProt Q93009, C315A); construct: 0.25 nM His-His-USP7 (aa208-560, [C315A]) was incubated with compound; His-His (N); experiment: Inhibition of USP7 by Fluorescence Intensity (FLINT) readings, Ubiquitin-Rhodamine-110 substrate; assay type: biochemical; settings: 0.25 nM His-His-USP7 (aa208-560, [C315A]); compound 60 minutes at 30° C.; 500 nM Ubiquitin-Rhodamine substrate; 11-point curves
measure_name: IC50 (µM)

P = O=C([C@@H]1CCCC[C@H]1n1ccnc1)N1CCC(O)(Cn2cnc3c(ccn3-c3ccccc3)c2=O)CC1 (single isomer, unassigned) [Example 50]
Q = COc1ccc(-n2ccc3c(=O)n(CC4(O)CCN(C(=O)[C@@H]5OCCO[C@@H]5c5ccccc5)CC4)cnc32)cc1 (single isomer, unassigned) [Example 8]
R = COc1ccc(-n2ccc3c(=O)n(CC4(O)CCN(C(=O)[C@@H]5OCCO[C@@H]5c5ccccc5)CC4)cnc32)cc1 (single isomer, unassigned) [Example 7]
Parameters: sort_by = IC50; order = desc; input = items above. Answer by listing the labels in the order asked for.
Q, R, P
(Q: 13.3 µM, R: 6.5 µM, P: 0.57 µM)
